Origin of measurements: patent US20140135310A1

Biological target: 5-HT2C receptor (Homo sapiens)
Construct: expressed in transfected cells; host or cells: HEK-293 cells
Sequence (P28335 33-458): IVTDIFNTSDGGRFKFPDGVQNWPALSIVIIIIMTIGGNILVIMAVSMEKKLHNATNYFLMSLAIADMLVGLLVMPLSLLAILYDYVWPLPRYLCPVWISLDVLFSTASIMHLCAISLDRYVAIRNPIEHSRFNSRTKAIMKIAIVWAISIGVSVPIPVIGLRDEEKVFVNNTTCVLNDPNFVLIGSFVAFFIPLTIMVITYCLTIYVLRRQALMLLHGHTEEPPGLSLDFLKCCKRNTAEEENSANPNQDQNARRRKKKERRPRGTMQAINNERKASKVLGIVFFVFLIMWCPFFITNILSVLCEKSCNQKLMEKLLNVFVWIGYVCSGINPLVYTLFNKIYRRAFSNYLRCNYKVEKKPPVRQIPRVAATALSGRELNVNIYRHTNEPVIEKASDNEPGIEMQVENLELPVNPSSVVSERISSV
Assay: Radioligand binding assay, serotoninergic 5-HT2C receptors
Details: test compound 1×10^−6 M
measured-parameter: inhibition at 1 µM
Include the unit after the number when you answer.

Record excerpt, results attached:
molecule | measured-parameter | reported-measurement
O=S(=O)(NC1CCN(CCCc2noc3cc(F)ccc23)C1)c1cc2ccccc2s1 (centres unmarked) | inhibition at 1 µM | 83%
O=S(=O)(NC1CN(CCOc2cccc3[nH]ccc23)C1)c1cccc2ccccc12 | inhibition at 1 µM | 59%

Please state, for each entry, its recorded inhibition at 1 µM.
1. Cc1c(S(=O)(=O)N[C@@H]2CCN(CCCc3noc4cc(F)ccc34)C2)sc2ccc(Cl)cc12
2. O=S(=O)(NCC1CCN(CCCc2noc3cc(F)ccc23)C1)c1ccc2ccccc2c1 (centres unmarked)
3. O=S(=O)(N[C@@H]1CCN(CCCc2noc3cc(F)ccc23)C1)c1ccc2ccccc2c1

1: 87%; 2: 81%; 3: 84%

---

Molecular target: 5-HT2A serotoninergic receptors (Homo sapiens)
Sequence (P28223 whole entry): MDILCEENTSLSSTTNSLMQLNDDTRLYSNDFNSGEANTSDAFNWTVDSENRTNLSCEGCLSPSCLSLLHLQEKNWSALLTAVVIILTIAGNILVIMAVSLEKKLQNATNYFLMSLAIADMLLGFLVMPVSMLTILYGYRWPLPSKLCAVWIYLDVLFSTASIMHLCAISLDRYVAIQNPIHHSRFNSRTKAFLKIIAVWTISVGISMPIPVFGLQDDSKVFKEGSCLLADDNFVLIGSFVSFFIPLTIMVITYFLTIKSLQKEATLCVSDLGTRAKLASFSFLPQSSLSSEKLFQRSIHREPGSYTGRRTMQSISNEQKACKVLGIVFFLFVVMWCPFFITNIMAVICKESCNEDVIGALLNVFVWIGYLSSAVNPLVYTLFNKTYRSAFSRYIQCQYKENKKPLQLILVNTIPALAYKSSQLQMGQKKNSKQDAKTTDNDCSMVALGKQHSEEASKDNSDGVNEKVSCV
Test: Cellular functional assay, 5-HT2A serotoninergic receptors
Assay type: cell-based
Exercise: state measured 5-HT2A ag [%] for each of the compounds provided.
One number for each entry, in %.

compound | measured-on | u | 5-HT2A ag [%]
O=S(=O)(NCC1CN(CCCc2noc3cc(F)ccc23)C1)c1ccc2ccccc2c1 | 5-HT2A serotoninergic receptors (Homo sapiens) | % | −3

Please state, for each entry, its recorded 5-HT2A ag [%].
1. O=S(=O)(NC1CCN(CCOc2nsc3ccccc23)C1)c1ccc2ccccc2c1 (centres unmarked)
2. O=S(=O)(NC1CCN(CCCc2noc3cc(F)ccc23)C1)c1cccc2ccccc12 (centres unmarked)
3. O=S(=O)(NCC1CCN(CCCc2noc3cc(F)ccc23)C1)c1ccc2ccccc2c1 (centres unmarked)
4. O=S(=O)(NC1CCN(CCCc2noc3cc(F)ccc23)CC1)c1cccc2ccccc12
5. Cc1cc(S(=O)(=O)N[C@H]2CCN(CCCc3noc4cc(F)ccc34)C2)c(C)s1
6. O=S(=O)(NCC1CCN(CCCc2noc3cc(F)ccc23)C1)c1cccc2ccccc12 (centres unmarked)
7. O=S(=O)(N[C@@H]1CCN(CCCc2noc3cc(F)ccc23)C1)c1cc2ccccc2s1

1. 3
2. 0
3. −1
4. −1
5. 0
6. −2
7. 0

Please state, for each entry, its recorded 5-HT2A ag [%].
1. O=S(=O)(NC1CCN(CCCc2noc3cc(F)ccc23)C1)c1ccc2ccccc2c1 (centres unmarked)
2. O=S(=O)(N[C@@H]1CCN(CCCc2noc3cc(F)ccc23)C1)c1ccc2ccccc2c1

2
−1

Which 5-HT2A ag [%] is listed for Cc1cccc(S(=O)(=O)NC2CCN(CCCc3c[nH]c4ccc(F)cc34)C2)c1 (centres unmarked) ?
51

---

Molecular target: 5-HT6 receptor (Homo sapiens, UniProt P50406)
Construct: purchased PerkinElmer
Sequence (P50406 whole entry): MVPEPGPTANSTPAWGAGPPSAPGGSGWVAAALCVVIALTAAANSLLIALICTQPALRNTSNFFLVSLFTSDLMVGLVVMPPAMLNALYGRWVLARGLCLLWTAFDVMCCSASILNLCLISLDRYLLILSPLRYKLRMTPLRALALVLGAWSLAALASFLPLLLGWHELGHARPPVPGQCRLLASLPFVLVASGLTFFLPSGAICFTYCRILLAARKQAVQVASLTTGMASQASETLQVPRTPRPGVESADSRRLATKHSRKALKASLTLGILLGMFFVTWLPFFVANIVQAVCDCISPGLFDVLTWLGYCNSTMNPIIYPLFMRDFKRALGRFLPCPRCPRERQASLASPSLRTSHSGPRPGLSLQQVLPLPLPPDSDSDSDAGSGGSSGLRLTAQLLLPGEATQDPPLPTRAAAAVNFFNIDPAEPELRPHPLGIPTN
Test: Radioligand binding assay, serotoninergic 5-HT6 receptors;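 also: test compound at 1 µM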
Details: binding assay result in %, Table 5a
measured-parameter: inhibition at 1 µM (%)
Answers are plain numbers, in %.

Record excerpt, results attached:
molecule | u | reported-measurement
O=S(=O)(NC1CCN(CCCc2c[nH]c3ccc(F)cc23)C1)c1ccc(Cl)cc1 (stereo not shown) [Compound 77] | % | 95
O=S(=O)(NCC1CN(CCOc2cccc3c2OCCO3)C1)c1ccsc1 [Compound 191] | % | 5
O=S(=O)(NCC1CCN(CCOc2cccc3ccccc23)C1)c1cc2ccccc2s1 (stereo not shown) [Compound 268] | % | 84

Which inhibition at 1 µM is listed for O=S(=O)(NC1CCN(CCCc2c[nH]c3ccc(F)cc23)C1)c1cccc2ccccc12 (stereo not shown) [Compound 79] ?
86

---

Biological target: 5-HT6 receptor (Homo sapiens, UniProt P50406)
Construct: purchased PerkinElmer
Experiment: Radioligand binding assay, serotoninergic 5-HT6 receptors;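 also: test compound at 1 µM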
Conditions: binding assay result in %, Table 5a
Classification field: enter y for inhibition at 1 µM values not below 70%, n for values below it.

Some entries whose results are on file:
compound | measured-on | label-class
Cc1c(S(=O)(=O)NC2CCN(CCCc3noc4cc(F)ccc34)CC2)sc2ccc(Cl)cc12 | 5-HT6 receptor (Homo sapiens, UniProt P50406) | y
Cn1ccc2c(S(=O)(=O)NC3CCN(CCCc4noc5cc(F)ccc45)C3)cccc21 (stereo not drawn) | 5-HT6 receptor (Homo sapiens, UniProt P50406) | y
COc1ccc(S(=O)(=O)NC2CCN(CCCc3noc4cc(F)ccc34)C2)cc1 (stereo not drawn) | 5-HT6 receptor (Homo sapiens, UniProt P50406) | y
CC1(C)Cc2cccc(OCCN3CCC(NS(=O)(=O)c4ccc5ccccc5c4)C3)c2O1 (stereo not drawn) | 5-HT6 receptor (Homo sapiens, UniProt P50406) | n
O=S(=O)(NCC1CN(CCCc2noc3cc(F)ccc23)C1)c1cccc2ccccc12 | 5-HT6 receptor (Homo sapiens, UniProt P50406) | y
O=S(=O)(NCC1CCN(CCCc2noc3cc(F)ccc23)C1)c1ccc2c(c1)OCO2 (stereo not drawn) | 5-HT6 receptor (Homo sapiens, UniProt P50406) | n

Hi team, for O=S(=O)(NC1CCN(CCCc2noc3cc(F)ccc23)CC1)c1cc2ccccc2s1 , is the recorded inhibition at 1 µM at or above 70%?
y

Hi team, for O=S(=O)(NCC1CN(CCOc2cccc3ccccc23)C1)c1ccc2cc(Cl)ccc2c1 , is the recorded inhibition at 1 µM at or above 70%?
y

---

Target: 5-HT6 receptor (Homo sapiens, UniProt P50406)
Construct: purchased PerkinElmer
Test: Radioligand binding assay, serotoninergic 5-HT6 receptors;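 also: test compound at 1 µM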
Conditions: binding assay result in %, Table 5a
Classification field: enter met for inhibition at 1 µM values not below 70%, not met for values below it.

Some entries whose results are on file:
compound | measured-on | label-class
O=S(=O)(NCC1CN(CCCc2noc3cc(F)ccc23)C1)c1ccc(-c2ccccc2)cc1 | 5-HT6 receptor (Homo sapiens, UniProt P50406) | met
O=S(=O)(NC1CCN(CCCc2c[nH]c3ccc(F)cc23)C1)c1ccc2ccccc2c1 (stereo not drawn) | 5-HT6 receptor (Homo sapiens, UniProt P50406) | met
O=S(=O)(NCC1CCN(CCOc2cccc3c2OCCO3)C1)c1cccc(F)c1 (stereo not drawn) | 5-HT6 receptor (Homo sapiens, UniProt P50406) | not met

Hi team, for O=S(=O)(NCC1CN(CCCc2noc3cc(F)ccc23)C1)c1cc2ccccc2s1 , is the recorded inhibition at 1 µM at or above 70%?
met

Hi team, for O=S(=O)(N[C@H]1CCN(CCCc2noc3cc(F)ccc23)C1)c1cc2ccc(Cl)cc2s1 , is the recorded inhibition at 1 µM at or above 70%?
met

Hi team, for Cn1ccc2c(S(=O)(=O)NC3CCN(CCCc4noc5cc(F)ccc45)CC3)cccc21 , is the recorded inhibition at 1 µM at or above 70%?
not met

---

Target: dopaminergic receptors D2 (Homo sapiens)
Sequence (P14416 whole entry): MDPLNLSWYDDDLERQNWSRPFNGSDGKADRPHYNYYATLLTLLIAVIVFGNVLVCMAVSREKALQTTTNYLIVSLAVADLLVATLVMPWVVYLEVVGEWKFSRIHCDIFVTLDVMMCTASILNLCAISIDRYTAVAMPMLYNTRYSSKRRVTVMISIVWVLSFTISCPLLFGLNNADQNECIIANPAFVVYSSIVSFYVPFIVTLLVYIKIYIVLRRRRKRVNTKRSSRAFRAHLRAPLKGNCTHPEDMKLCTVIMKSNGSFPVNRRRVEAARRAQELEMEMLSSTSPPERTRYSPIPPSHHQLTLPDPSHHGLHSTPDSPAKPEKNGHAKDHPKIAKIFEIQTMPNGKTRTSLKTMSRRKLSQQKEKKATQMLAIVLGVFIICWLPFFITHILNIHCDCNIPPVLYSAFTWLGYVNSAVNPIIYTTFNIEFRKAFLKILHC
Test: Radioligand binding assay, dopaminergic D2 receptors
Conditions: binding assay, test compound 1×10^−6 M
Exercise: state measured inhibition at 1 µM for each of the compounds provided.
Answers are plain numbers, in %.

Record excerpt, results attached:
compound | measured-on | reported-measurement
O=S(=O)(NCC1CCN(CCCc2noc3cc(F)ccc23)C1)c1csc2ccccc12 (centres unmarked) | dopaminergic receptors D2 (Homo sapiens) | 88
Cc1ccc2sc(S(=O)(=O)N[C@@H]3CCN(CCCc4noc5cc(F)ccc45)C3)cc2c1 | dopaminergic receptors D2 (Homo sapiens) | 100
O=S(=O)(NCC1CN(CCOc2cccc3ccccc23)C1)c1cccc2ccccc12 | dopaminergic receptors D2 (Homo sapiens) | 64
O=S(=O)(NCC1CN(CCOc2cccc3c2OCCO3)C1)c1cc2ccccc2o1 | dopaminergic receptors D2 (Homo sapiens) | 77
O=S(=O)(N[C@@H]1CCN(CCCc2noc3cc(F)ccc23)C1)c1cc2ccccc2s1 | dopaminergic receptors D2 (Homo sapiens) | 100
O=S(=O)(NCC1CN(CCOc2cccc3c2OCCO3)C1)c1ccc(C(F)(F)F)cc1 | dopaminergic receptors D2 (Homo sapiens) | 23

Please state, for each entry, its recorded inhibition at 1 µM.
1. O=S(=O)(NC1CCN(CCCc2noc3cc(F)ccc23)C1)c1cc2ccccc2o1 (centres unmarked)
2. O=S(=O)(NC1CCN(CCOc2cccc3ccccc23)C1)c1ccc2ccccc2c1 (centres unmarked)

[98, 91]
